Here the recorded pest or weed control at 150 g/ha is given for each entry.
test system: Digitaria sanguinalis; assay: Greenhouse herbicidal activity assay, post-emergence; assay type: in vivo; settings: Digitaria sanguinalis; Post-emergence test, rate 150 g a.i./hm^2; grade by fresh weight inhibition rate; read-out: Control efficacy grade, Digitaria sanguinalis
outcome.measure: pest or weed control at 150 g/ha

[
  {
    "molecule": "CCC[S+]([O-])c1c(S(C)(=O)=O)ccc(C(=O)Nc2nnnn2C)c1Cl (racemic) [Compound 1-2]",
    "reported": "80 to 100%"
  },
  {
    "molecule": "CCn1nnnc1NC(=O)c1ccc(S(C)(=O)=O)c([S+]([O-])C(C)C)c1Cl (stereo not shown) [Compound 1-93]",
    "reported": "80 to 100%"
  },
  {
    "molecule": "CCCSc1c(S(C)(=O)=O)ccc(C(=O)Nc2nnnn2C)c1Cl [Compound 1-1]",
    "reported": "80 to 100%"
  },
  {
    "molecule": "CC(C)S(=O)(=O)c1c(S(C)(=O)=O)ccc(C(=O)Nc2ncnn2C)c1Cl [Compound 2-10]",
    "reported": "80 to 100%"
  }
]

====

Here the recorded inhibition at 75 g/ha is given for each entry.
tested on: Echinochloa crusgalli; assay: Greenhouse herbicidal activity and crop safety comparison (Test Example 2); assay type: in vivo; conditions: Echinochloa crus-galli; Rate 75 g/ha; read-out: Echinochloa crusgalli, control efficacy grading (fresh weight inhibition rate)

[
  {
    "compound": "Cn1nnnc1NC(=O)c1ccc(S(C)(=O)=O)c(S(C)(=O)=O)c1Cl [CK1, reference compound]",
    "inhibition at 75 g/ha": "80 to 100%"
  },
  {
    "compound": "CCS(=O)(=O)c1c(S(C)(=O)=O)ccc(C(=O)Nc2ncnn2C)c1Cl [CK4, reference compound]",
    "inhibition at 75 g/ha": "40 to 60%"
  },
  {
    "compound": "Cn1ncnc1NC(=O)c1ccc(S(C)(=O)=O)c(S(C)(=O)=O)c1Cl [CK3, reference compound]",
    "inhibition at 75 g/ha": "40 to 60%"
  },
  {
    "compound": "Cc1nnc(N(C)C(=O)c2ccc(S(C)(=O)=O)c([S+](C)[O-])c2Cl)o1 (stereo not shown) [CK5, reference compound]",
    "inhibition at 75 g/ha": "< 20%"
  },
  {
    "compound": "CCC[S+]([O-])c1c(S(C)(=O)=O)ccc(C(=O)N(C)c2nnc(C)o2)c1Cl (racemic)",
    "inhibition at 75 g/ha": "80 to 100%"
  },
  {
    "compound": "CCS(=O)(=O)c1c(S(C)(=O)=O)ccc(C(=O)Nc2nnnn2C)c1Cl [CK2, reference compound]",
    "inhibition at 75 g/ha": "80 to 100%"
  },
  {
    "compound": "CC(C)S(=O)(=O)c1c(S(C)(=O)=O)ccc(C(=O)Nc2ncnn2C)c1Cl",
    "inhibition at 75 g/ha": "80 to 100%"
  }
]

====

Here the recorded pest or weed control at 150 g/ha is given for each entry.
system: Digitaria sanguinalis; assay: Greenhouse herbicidal activity assay, post-emergence; type: in vivo; conditions: Digitaria sanguinalis; Post-emergence test, rate 150 g a.i./hm^2; grade by fresh weight inhibition rate; read-out: Control efficacy grade, Digitaria sanguinalis

[
  {
    "compound": "Cc1nnc(NC(=O)c2ccc(S(C)(=O)=O)c([S+]([O-])C(C)C)c2Cl)o1 (stereo not drawn) [Compound 3-7]",
    "pest or weed control at 150 g/ha": "80 to 100%"
  },
  {
    "compound": "CC(C)[S+]([O-])c1c(S(C)(=O)=O)ccc(C(=O)Nc2ncnn2C)c1Cl (racemic) [Compound 2-7]",
    "pest or weed control at 150 g/ha": "80 to 100%"
  },
  {
    "compound": "Cc1nnc(NC(=O)c2ccc(S(C)(=O)=O)c(SC(C)C)c2Cl)o1 [Compound 3-6]",
    "pest or weed control at 150 g/ha": "80 to 100%"
  },
  {
    "compound": "CCCS(=O)(=O)c1c(S(C)(=O)=O)ccc(C(=O)Nc2nnco2)c1Cl [Compound 3-271]",
    "pest or weed control at 150 g/ha": "80 to 100%"
  },
  {
    "compound": "Cc1nonc1NC(=O)c1ccc(S(C)(=O)=O)c([S+]([O-])CC2CC2)c1Cl (stereo not drawn) [Compound 4-33]",
    "pest or weed control at 150 g/ha": "80 to 100%"
  },
  {
    "compound": "CC(C)Sc1c(S(C)(=O)=O)ccc(C(=O)Nc2ncnn2C)c1Cl [Compound 2-6]",
    "pest or weed control at 150 g/ha": "80 to 260%"
  }
]
